SUBJECT_OF_TEST: recombinant human HGF (hepatocyte growth factor) (human, UniProt P14210 32-728)
Sequence (P14210 32-728 limits assumed): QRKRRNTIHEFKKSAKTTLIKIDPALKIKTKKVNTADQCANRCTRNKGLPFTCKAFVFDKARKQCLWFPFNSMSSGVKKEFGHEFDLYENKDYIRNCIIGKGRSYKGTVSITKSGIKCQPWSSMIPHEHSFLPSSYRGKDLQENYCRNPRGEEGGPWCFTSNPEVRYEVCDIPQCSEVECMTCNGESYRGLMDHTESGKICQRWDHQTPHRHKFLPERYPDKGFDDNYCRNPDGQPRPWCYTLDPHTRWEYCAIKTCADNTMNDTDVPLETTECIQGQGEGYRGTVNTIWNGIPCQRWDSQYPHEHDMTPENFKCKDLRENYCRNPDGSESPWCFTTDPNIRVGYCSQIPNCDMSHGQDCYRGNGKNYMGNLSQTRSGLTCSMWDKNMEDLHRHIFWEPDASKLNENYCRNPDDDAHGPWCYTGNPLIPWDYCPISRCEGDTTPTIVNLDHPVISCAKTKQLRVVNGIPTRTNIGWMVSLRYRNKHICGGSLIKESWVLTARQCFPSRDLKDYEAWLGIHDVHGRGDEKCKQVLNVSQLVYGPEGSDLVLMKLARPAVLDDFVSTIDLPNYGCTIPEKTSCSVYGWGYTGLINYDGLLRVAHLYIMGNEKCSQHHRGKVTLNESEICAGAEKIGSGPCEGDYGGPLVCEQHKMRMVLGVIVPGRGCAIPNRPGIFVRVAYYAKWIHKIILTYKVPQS
ASSAY_DETAILS: cell-based or functional assay
MEASURED_ENDPOINT: % inhibition of HGF stimulated c-Met phosphorylation in A549 cells (%)
Give bare numbers, in %.

Use these answered entries as a reference point.
BINDER	UNIT	OBSERVED_RESULT
DARPin #41 (designed binder) MRGSHHHHHHGSDLGKKLLEAARAGQDDEVRILMANGADVNAKYEDGLTPLHLAAFYGHLEIVEVLLRHGADVNATDAWGHTPLHLAAYLGHLEIVEVLLKYGADVNAEDTEGYTPLHLAAMDGHLEIIEVLLKHGADVNAQDKFGKTAFDISIDNGNEDLAEILQKLN	%	99
DARPin #51 (designed binder) MRGSHHHHHHGSDLGKKLLEAARAGQDDEVRILLKAGADVNAKDRYGDTPLHLAADIGHLEIVEVLLKAGADVNAEDYFGNTPLHLAASYGHLEIVEVLLKAGADVNAKDDYGNTPLHLAANTGHLEIVEVLLKAGADVNAQDKSGKTPADLAADAGHEDIAEVLQKLN	%	81

We next turn to a different binder, shown below.
[ask] GET /values?readout=% inhibition of HGF stimulated c-Met phosphorylation in A549 cells&item= DARPin #48 (designed binder) MRGSHHHHHHGSDLGKKLLEAARAGQDDEVRILMANGADVNAKDRFGDTPLHLAADIGHLKIVEVLLKHGADVNAEDWFGNTPLHLAASMGHLEIVEVLLKYGADVNAMDDYGNTPLHLAANTGHLEIVEVLLKHGADVNAQDKFGKTAFDISIDNGNEDLAEILQKLN
[reply] 95

Values compiled from patent US20160251404A1.
